# experimental_system: T1, monkey GPC3-His protein (monkey)
# T1 construct: Bought recombinant protein; also called monkey GPC3 protein
# measurement_description: SPR, antibody captured on Protein A chip, monkey GPC3-His analyte;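 further: run at 25 °C with 240 s association and up to 600 s dissociation, double-referenced, kinetics fitted to a 1:1 Langmuir binding model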
measure: koff (s⁻¹)
The response must be a number in s⁻¹ with no trailing unit.

F1.115.8 (antibody, human IgG1, kappa, V domains shown, Human-murine chimeric antibody) VH: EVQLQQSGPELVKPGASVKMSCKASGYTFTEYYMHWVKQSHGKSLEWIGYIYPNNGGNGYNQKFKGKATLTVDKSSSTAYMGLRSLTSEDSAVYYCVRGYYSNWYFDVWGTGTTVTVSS VL: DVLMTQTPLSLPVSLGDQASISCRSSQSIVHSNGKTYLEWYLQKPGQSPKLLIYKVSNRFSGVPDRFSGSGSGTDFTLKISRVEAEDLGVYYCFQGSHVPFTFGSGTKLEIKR : 0.00145

Consider now this further binder.
# input Which koff is listed for F3.54.12 (antibody, human IgG1, kappa, V domains shown, Human-murine chimeric antibody) VH: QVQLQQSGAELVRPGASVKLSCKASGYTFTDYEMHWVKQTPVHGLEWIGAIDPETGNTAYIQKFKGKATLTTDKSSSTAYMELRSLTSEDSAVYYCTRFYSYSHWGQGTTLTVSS VL: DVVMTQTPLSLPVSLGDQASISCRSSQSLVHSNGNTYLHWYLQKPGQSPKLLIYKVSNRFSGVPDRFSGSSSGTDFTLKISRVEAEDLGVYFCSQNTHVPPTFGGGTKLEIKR ?
# output 0.00117
